Test target: NK1 receptor (Homo sapiens)
Sequence (P25103 whole entry): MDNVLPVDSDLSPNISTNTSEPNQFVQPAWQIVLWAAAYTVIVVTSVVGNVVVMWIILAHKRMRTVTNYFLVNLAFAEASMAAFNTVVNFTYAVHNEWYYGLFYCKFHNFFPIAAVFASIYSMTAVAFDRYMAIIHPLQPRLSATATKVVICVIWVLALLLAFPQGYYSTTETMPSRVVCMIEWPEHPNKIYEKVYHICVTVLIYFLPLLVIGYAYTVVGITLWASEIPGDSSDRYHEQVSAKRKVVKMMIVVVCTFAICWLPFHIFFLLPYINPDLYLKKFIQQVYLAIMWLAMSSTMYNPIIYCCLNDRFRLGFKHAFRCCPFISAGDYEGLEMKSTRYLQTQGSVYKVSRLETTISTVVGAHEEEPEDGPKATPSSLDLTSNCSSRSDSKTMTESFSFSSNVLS
Procedure summary: neurokinin receptor binding assay, NK1 (Ki)
Settings: read-out: Ki (NK1)
Mark 1 only for Ki values smaller than 0.3 nM; exact matches and larger values are 0.

Please review the following examples before continuing.
# Compound, Qualitative label
data = [
    ("Cc1cc(C)cc(C(=O)N(C)CC(=NOCC#N)C(CCN2CCC(N3CCCCC3=O)CC2)c2ccc(Cl)c(Cl)c2)c1 (stereo not shown) [Example 18D]", 0),
    ("CON=C(CN(C)C(=O)c1cc(Cl)cc(Cl)c1)[C@H](CCN1CCC(N2CCC[C@H](CC(=O)OC)C2=O)CC1)c1ccc(Cl)c(Cl)c1 [Example 13F]", 1),
]

# input Would you kindly verify if Ki of CNC(=O)CC1CCCN(C2CCN(CCC(C(CN(C)C(=O)c3cc(Cl)cc(Cl)c3)=NOCF)c3ccc(Cl)c(Cl)c3)CC2)C1=O (stereo not shown) [Example 15K] is strictly less than 0.3 nM?
# output 0

# input Report whether reported Ki is lower than 0.3 nM (strictly) for CNC(=O)CC1CCCN(C2CCN(CCC(C(CN(C)C(=O)c3cc(Cl)cc(Cl)c3)=NOCC#N)c3ccc(Cl)c(Cl)c3)CC2)C1=O (stereo not shown) [Example 15B]
# output 0

# input Quick check: does CN(CC(=NOCCCS(=O)(=O)O)C(CCN1CCC(N2CCCCC2=O)CC1)c1ccc(Cl)c(Cl)c1)C(=O)c1cc(Cl)cc(Cl)c1 (stereo not shown) [Example 17K] have Ki under 0.3 nM?
# output 0

# input Check if Ki falls below 0.3 nM for CON=C(CN(C)C(=O)c1cc(C)cc(C)c1)C(CCN1CCC(N2CCCCC2=O)CC1)c1ccc(Cl)c(Cl)c1 (stereo not shown) [Example 18B] .
# output 0

# input I'd appreciate it if you could check whether CON=C(N)CON=C(CN(C)C(=O)c1cc(C)cc(C)c1)C(CCN1CCC(N2CCCCC2=O)CC1)c1ccc(Cl)c(Cl)c1 (stereo not shown) [Example 18M] has Ki smaller than 0.3 nM.
# output 1

# input Report whether reported Ki is lower than 0.3 nM (strictly) for CON=C(CN(C)C(=O)c1cc(Cl)cc(Cl)c1)[C@H](CCN1CCC(N2CCC[C@H](CC(N)=O)C2=O)CC1)c1ccc(Cl)c(Cl)c1 [Example 13C]
# output 0

# input Is the reported Ki for CNC(=O)C[C@H]1CCCN(C2CCN(CC[C@@H](C(CN(C)C(=O)c3cc(Cl)cc(Cl)c3)=NOC)c3ccc(Cl)c(Cl)c3)CC2)C1=O [Example 13B] strictly below 0.3 nM?
# output 0

# input Does CN(CC(=NO)C(CCN1CCC(N2CCCC(CC(N)=O)C2=O)CC1)c1ccc(Cl)c(Cl)c1)C(=O)c1cc(Cl)cc(Cl)c1 (stereo not shown) [Example 16A] have Ki strictly under 0.3 nM?
# output 1

# input Does this compound meet the criterion Ki < 0.3 nM? CNC(=O)CC1CCCN(C2CCN(CCC(C(CN(C)C(=O)c3cc(Cl)cc(Cl)c3)=NOCC(N)=O)c3ccc(Cl)c(Cl)c3)CC2)C1=O (stereo not shown) [Example 15D]
# output 0
